measurement-target: human CD33 C36A (human, UniProt P20138 18-364)
Sequence (P20138 18-364 C36A limits assumed): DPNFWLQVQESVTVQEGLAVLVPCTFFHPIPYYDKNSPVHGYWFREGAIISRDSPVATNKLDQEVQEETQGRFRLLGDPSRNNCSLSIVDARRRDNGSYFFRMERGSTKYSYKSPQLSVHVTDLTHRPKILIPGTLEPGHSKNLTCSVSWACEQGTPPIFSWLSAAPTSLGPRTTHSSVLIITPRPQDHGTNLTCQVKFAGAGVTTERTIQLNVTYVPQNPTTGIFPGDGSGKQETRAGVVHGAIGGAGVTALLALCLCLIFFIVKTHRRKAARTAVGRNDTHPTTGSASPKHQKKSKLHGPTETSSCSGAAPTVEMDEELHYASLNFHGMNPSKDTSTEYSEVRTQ
assay-method-text: alanine scan, flow cytometry;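 note: HEK293-T cells transiently expressing single-residue alanine mutants of CD33 (alanine swapped to serine), antibody binding read by fluorescence in duplicate, background-subtracted, expressed relative to wild-type CD33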
experimental-endpoint: Mean % WT Binding (% WT)
Write the answer as a number in % WT, unit excluded.

Mean % WT Binding recorded for this binder, Refmab #4 (antibody, V domains shown, Full-length format is human IgG1 Fc silent (PG-LALA); The alanine scan used IgG or Fab) VH: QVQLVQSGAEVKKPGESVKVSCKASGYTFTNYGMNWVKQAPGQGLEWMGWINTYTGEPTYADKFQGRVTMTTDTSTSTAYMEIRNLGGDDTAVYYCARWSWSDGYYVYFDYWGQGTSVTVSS VL: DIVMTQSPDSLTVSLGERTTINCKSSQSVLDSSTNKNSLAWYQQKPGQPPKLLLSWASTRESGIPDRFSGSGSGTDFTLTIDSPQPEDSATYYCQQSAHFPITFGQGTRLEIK , is 108
